TEST_DETAILS: protease stability score; higher = more stable; yeast display proteolysis, trypsin and chymotrypsin;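 further: relative to predicted unfolded state with 0 unfolded-like and 1 meaning tenfold more protease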

# PRIMARY_SEQUENCE, protease stability score
data = [
    ("DEREKEALDIAREVLHNIMTGDWERLSQLLDPNTRFHEHWNGVHIDLHGRETVSHLLFRHVKHIRIEHVHLEDMVVIGEKAIIHSRRHIEIDGKHMTHHVLLYLLVIDGKIKDVRLHLE", 0.869),
    ("SEEDEHMRRLVEIIIHNWHTGDEEKLANMMDPNAKSNINGVELIGRDLITSFLKEELKRLGVKHVHDTEIHLQGNKSIIHSRVHVNGVDIEMEIIIIIIDGVIKEVEWRRR", 1.96),
    ("SELDHLTKHAMELWLRLLETGDEHSEHRLADPNVRLDVNGKELHGMEEILEHLSRLGIKVFRVKDTELVGNKLHLIGELEFDGKRVETHVIAWKINGRWHLHRREIR", 1.57),
    ("DELHEEYRKIYNIFRHLFETGDWDTWRKLADPHARFEYGEKVSHGREVASETIDWLLEHLRLEHFKLDHFTVQGNFFISDGTEHISYGDKTHTVKTRIILVRVNGVFHLVRIEFV", 1.43),
    ("DEREKLAKKFLELFLHYIETGDEEVLRKLLDPSTRLEVNGRDNHGWKMFIWLLRELRIHRVHMELKVTDIQGDYVRNEGRLRSDVEYGDKRFETEYMVIIFLEKVDGRWHLHSFEVD", 1.56),
    ("SEDEHAARWMTEDLERHTETGDEHRLTELIDPHAKLIFNGREYHGWEDYVKLFRELRVRRLEIKRVEVQGDKLFIDSTLRGNVNGREIDFEIHFVTHKINGRWKVHSVEII", 1.69),
]
